Test: Metabolic bioavailability in human liver microsomes at 0.1 uM pre-incubated with compound followed by NADPH addition and measured after 60 mins by LC-MS/MS analysis
Assay type: ADME, microsome
OBSERVATION TYPE: Fh at 1 h, 0.1 µM (%)

[
  {
    "MOLECULE": "CC(C)C(O/N=C(\\C(=O)N[C@@H]1C(=O)N(S(=O)(=O)O)[C@@H]1COC(N)=O)c1csc(N)n1)c1cc(=O)c(O)cn1O (some centres undefined)",
    "Fh at 1 h, 0.1 µM [%]": 62.2
  },
  {
    "MOLECULE": "CC(C)C(O/N=C(\\C(=O)N[C@@H]1C(=O)N(S(=O)(=O)O)[C@@H]1CCl)c1csc(N)n1)c1cc(=O)c(O)cn1O (some centres undefined)",
    "Fh at 1 h, 0.1 µM [%]": 63.9
  }
]

1 = CC(C)C(O/N=C(\C(=O)N[C@@H]1C(=O)N(S(=O)(=O)O)[C@@H]1Cn1cc(COCc2cc(=O)c(O)cn2O)nn1)c1csc(N)n1)c1cc(=O)c(O)cn1O (some centres undefined)
2 = CC(C)C(O/N=C(\C(=O)N[C@@H]1C(=O)N(S(=O)(=O)O)C12CCCC2)c1csc(N)n1)c1cc(=O)c(O)cn1O (some centres undefined)
I'm curious whether 1 or 2 has the smaller Fh at 1 h, 0.1 µM number. Which is it? // respond with label for picked entry 1
(1: 42.8%, 2: 71.6%)

* * *

Listed next: entries and their corresponding Selectivity Index.
Tested on: Escherichia coli
Experiment: Selectivity index, ratio of MIC for against extended-spectrum beta-lactamase producing Escherichia coli isolate 209285 to MIC for extended-spectrum beta-lactamase producing Escherichia coli isolate 209285 in presence of BPL
Assay type: functional
Output: the number by itself.

[
  {
    "MOLECULE": "CC(C)C(O/N=C(\\C(=O)N[C@@H]1C(=O)N(S(=O)(=O)O)[C@@H]1COC(=O)CNC(=O)c1cc(=O)c(O)c[nH]1)c1csc(N)n1)c1cc(=O)c(O)cn1O (some centres not stated)",
    "Selectivity Index": 2
  },
  {
    "MOLECULE": "CC(C)C(O/N=C(\\C(=O)N[C@@H]1C(=O)N(S(=O)(=O)O)[C@@H]1CSc1nnnn1C)c1csc(N)n1)c1cc(=O)c(O)cn1O (some centres not stated)",
    "Selectivity Index": 4
  },
  {
    "MOLECULE": "CC(C)C(O/N=C(\\C(=O)N[C@@H]1C(=O)N(S(=O)(=O)O)[C@@H]1CO)c1csc(N)n1)c1cc(=O)c(O)cn1O (some centres not stated)",
    "Selectivity Index": 2
  },
  {
    "MOLECULE": "Cc1nnc(SC[C@@H]2[C@H](NC(=O)/C(=N\\OC(c3cc(=O)c(O)cn3O)C(C)C)c3csc(N)n3)C(=O)N2S(=O)(=O)O)s1 (some centres not stated)",
    "Selectivity Index": 4
  },
  {
    "MOLECULE": "CC(C)C(O/N=C(\\C(=O)NC1C(=O)N(S(=O)(=O)O)C12CCOCC2)c1csc(N)n1)c1cc(=O)c(O)cn1O (configuration not stated)",
    "Selectivity Index": 2
  }
]

What Selectivity Index value was documented for this molecule, CC(C)C(O/N=C(\C(=O)NC1C(=O)N(S(=O)(=O)O)C12CCCC2)c1csc(N)n1)c1cc(=O)c(O)cn1O (configuration not stated) ? 2

// repeat for COC[C@@H]1[C@H](NC(=O)/C(=N\OC(c2cc(=O)c(O)cn2O)C(C)C)c2csc(N)n2)C(=O)N1S(=O)(=O)O (some centres not stated) and report 4

Values from ChEMBL document CHEMBL4152188
